testSystem: BIRC2; also: test concentration or dose not given here
testSettings: ASO
These antisense oligonucleotides have a phosphorothioate backbone; sugars and methylation of C are not fully specified.
We begin with a simple list: items and their reported remaining target (mRNA or protein) (fraction of control).

[
  {
    "biosequence": "TTGGCTTAAAGTTCAAAA",
    "result": "≥ 1"
  },
  {
    "biosequence": "TGCCTTTTATTTATATTT",
    "result": "≥ 1"
  },
  {
    "biosequence": "CCAAGGTGGGAGATAATG",
    "result": 0.97
  }
]

Recorded remaining target (mRNA or protein) (fraction of control) for `ATAATTGGTGGGTCAGCA` with BIRC2, please? ≥ 1

Which measured remaining target (mRNA or protein) (fraction of control) belongs to `CCAGATTCTGAATAAAGC` , tested on BIRC2? ≥ 1
